B1: library; a variant is named by its letters at N, in order (parent)
chain: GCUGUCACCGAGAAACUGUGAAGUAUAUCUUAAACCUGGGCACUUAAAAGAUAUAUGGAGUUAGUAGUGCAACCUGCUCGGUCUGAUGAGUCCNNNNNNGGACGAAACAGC

Variants of: B1
Test: normalized RNA/DNA level with ligand (relative to sTRSVctl = 100) (log10 (% of sTRSVctl)); HEK293T; ligand: cyclic di-GMP (c-di-GMP-II aptamer); ligand concentration (+) RNA-Seq: 1 mM; higher = less ribozyme self-cleavage, higher mRNA level
Conditions: reporter: mCherry (pCS4076), ligand present: yes
Reported normalized RNA/DNA level with ligand (log10) values for a set of variants
VALUE KIND: normalized RNA/DNA level with ligand (log10)

variant_name=CUAACC reported_result=1.84
variant_name=UGUGCC reported_result=1.94
variant_name=GGGAAG reported_result=1.71
variant_name=CCGACA reported_result=1.74
variant_name=AAAGCG reported_result=1.78
variant_name=ACAAGA reported_result=1.46
variant_name=UCGUCC reported_result=1.9
variant_name=CUAUUU reported_result=1.75
variant_name=UCCUGA reported_result=1.85
variant_name=CGCGAC reported_result=1.8
variant_name=UCGAUC reported_result=1.79
variant_name=GACAAU reported_result=1.74
variant_name=CCGUUA reported_result=1.59
variant_name=CACGAA reported_result=1.53
variant_name=GCCGGG reported_result=1.93
variant_name=GACGAU reported_result=1.74
variant_name=CUAUAU reported_result=1.77
variant_name=UCCGCU reported_result=1.88
variant_name=GUGAUC reported_result=1.27
variant_name=UUAGCA reported_result=1.83
variant_name=CUACAA reported_result=1.68
variant_name=GCAGUA reported_result=1.7
variant_name=UCUCGG reported_result=1.96
variant_name=UGGCUC reported_result=1.92
variant_name=GUUCGG reported_result=1.84
variant_name=CCGGAU reported_result=1.76
variant_name=AAAACC reported_result=1.81
variant_name=CCGCAG reported_result=1.67
variant_name=AUGGGG reported_result=1.68
variant_name=UUCCAC reported_result=1.88
variant_name=UCAUUG reported_result=1.82
variant_name=UGUGCU reported_result=1.87
variant_name=CAGAGA reported_result=1.64
variant_name=GUCCAA reported_result=1.74
variant_name=CCUACG reported_result=1.82
variant_name=CCCGAG reported_result=1.76
variant_name=AUUACG reported_result=1.83
variant_name=CCUUGU reported_result=1.86
variant_name=CAUCCA reported_result=1.7
variant_name=ACUCUU reported_result=1.83
variant_name=GUACUG reported_result=1.78
variant_name=GGAAGC reported_result=1.76
variant_name=ACCGAU reported_result=1.67
variant_name=UACUCC reported_result=1.9
variant_name=GUUAGC reported_result=1.85
variant_name=CUGCUG reported_result=1.79

Values compiled from the supplement of paper PMC6757056.
